# System: NCI-H226 lung
# TEST_PROTOCOL: NCI tumour cell line growth inhibition, 48 h
// reported log10 TGI for each item listed
MEASUREMENT_KIND: log10 TGI (log10 of the value in µM)

{"columns": ["MOLECULE", "log10 TGI"],
 "data": [
  ["CCCCCCCC/C=C/CCCCCCCC1=NC(C)(C)CN1CCO", 1.52],
  ["Cc1cccc2sc(-c3ccc(O)cc3)nc12", 1.54],
  ["COc1ccc(/C=C2/SC(Nc3nc(-c4nc(NC5=NC(=O)/C(=C\\c6ccc(OC)cc6)S5)sc4C)c(C)s3)=NC2=O)cc1", 1.40],
  ["O=C(NCC1CCCO1)c1ccc(NC2=C(Cl)C(=O)N(Cc3ccccc3)C2=O)cc1 (configuration not stated)", 1.43],
  ["O=C1c2ccccc2-c2c1c1ccccc1c(=O)n2CCCNCCn1c2c(c3ccccc3c1=O)C(=O)c1ccccc1-2", 1.32],
  ["Cc1cc(-c2cc(O)ccc2Cl)cc2nnc(Nc3ccc(OCCN4CCCC4)cc3)nc12", 0.85],
  ["Fc1ccc2c3c([nH]c2c1)CCN(Cc1ccccc1)C3", 1.60],
  ["C/C(=C(\\c1ccc(OCCN2CCCCCC2)cc1)c1ccc(OC(=O)c2ccccc2)cc1)c1ccc(Cl)cc1", 1.05],
  ["COc1ccc2c(c1)/C(=C\\c1c(Cl)[nH]c3ccccc13)C(=O)N2", 1.85],
  ["Cc1cc(C)c(-c2c(N)cc(Br)cc2Br)c(N)c1", 1.42],
  ["CC(C)=CCCC(C)CCOS(=O)C(F)(F)F (configuration not stated)", 1.62],
  ["Cn1c2c(c3c(Cl)nncc31)Cc1ccccc1-2", 1.67],
  ["Cc1c(N=C/C=C/c2ccccc2)c(=O)n(-c2ccccc2)n1C", 1.58],
  ["O=[N+]([O-])c1cc([N+](=O)[O-])c(Nn2c3ccccc3c3ccccc32)c([N+](=O)[O-])c1", 0.88],
  ["CC(C)C(OC(=O)c1ccc(NCC2=CC(=O)C=CC2=O)cc1)C(C)C", 1.07],
  ["COc1cc2c(c(OC)c1OC)-c1ccc(SC)c(=O)cc1[C@@H](O)CC2", -1.77],
  ["CO[C@H]1CC(O[C@@H]2/C(C)=C/C[C@@H]3C[C@@H](C[C@]4(CC[C@H](C)[C@@H](C5CCCCC5)O4)O3)OC(=O)[C@@H]3C=C(C)/C(=N/O)[C@H]4OC/C(=C\\C=C\\[C@@H]2C)[C@]43O)O[C@@H](C)C1O (some centres not stated)", 0.16],
  ["CC[C@@H](C)/C=C(C)/C=C/C(=O)c1c(O)c(-c2ccc(O)cc2)cn(O)c1=O", 0.69]
]}
